target: hsTEAD4 (217-424) (Homo sapiens (Human)); test: Thermal shift measurement / Differential Scanning Fluorimetry (DSF); format: binding; details: 100 uM compound, 2 hours at 4° C., triplicates; read-out: ΔTm TEAD4 217-434
Sequence (Q15561 217-434): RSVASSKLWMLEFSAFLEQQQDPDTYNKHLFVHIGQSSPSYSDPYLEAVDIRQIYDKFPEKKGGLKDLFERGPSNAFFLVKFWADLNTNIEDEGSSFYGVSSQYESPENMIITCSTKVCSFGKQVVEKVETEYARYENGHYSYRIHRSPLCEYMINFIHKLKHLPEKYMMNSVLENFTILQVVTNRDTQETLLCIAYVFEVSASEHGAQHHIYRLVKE
readout: ΔTm at 100 µM (°C)
Give just the numeric value; °C need not be written.

Answered cases to consult:
Cc1ncsc1-c1ccc(CNC(=O)[C@@H]2C[C@@H](O)CN2C(=O)[C@@H](NC(=O)CCCCCC(=O)NCCOCCOCCNC(=O)c2ccc3c(c2)c2cn(C)nc2n3-c2ccc(C(F)(F)F)cc2)C(C)(C)C)cc1 [Compound 4]: 0
Cn1cc2c3cc(C(=O)NCCOCCOCCNC(=O)COc4cccc5c4C(=O)N(C4CCC(=O)NC4=O)C5=O)ccc3n(-c3ccc(C(F)(F)F)cc3)c2n1 (stereo not drawn) [Compound 5]: 2.8

Turning now to a further record.
Cn1cc2c3cc(C(=O)NCCOCCOCCNC(=O)COCCOCCOCC(=O)Nc4cccc5c4C(=O)N(C4CCC(=O)NC4=O)C5=O)ccc3n(-c3ccc(C(F)(F)F)cc3)c2n1 (stereo not drawn) [Compound 2] has a reported ΔTm at 100 µM of 0
